Biological target: FAAH (Mus musculus, UniProt O08914)
Construct: A fragment of liver, left lung lobe and brain without cerebellum were removed; from tissue; host or cells: male NMRI mice; brain (without cerebellum) and liver homogenates
Sequence (O08914 whole entry, the tested form may be a part): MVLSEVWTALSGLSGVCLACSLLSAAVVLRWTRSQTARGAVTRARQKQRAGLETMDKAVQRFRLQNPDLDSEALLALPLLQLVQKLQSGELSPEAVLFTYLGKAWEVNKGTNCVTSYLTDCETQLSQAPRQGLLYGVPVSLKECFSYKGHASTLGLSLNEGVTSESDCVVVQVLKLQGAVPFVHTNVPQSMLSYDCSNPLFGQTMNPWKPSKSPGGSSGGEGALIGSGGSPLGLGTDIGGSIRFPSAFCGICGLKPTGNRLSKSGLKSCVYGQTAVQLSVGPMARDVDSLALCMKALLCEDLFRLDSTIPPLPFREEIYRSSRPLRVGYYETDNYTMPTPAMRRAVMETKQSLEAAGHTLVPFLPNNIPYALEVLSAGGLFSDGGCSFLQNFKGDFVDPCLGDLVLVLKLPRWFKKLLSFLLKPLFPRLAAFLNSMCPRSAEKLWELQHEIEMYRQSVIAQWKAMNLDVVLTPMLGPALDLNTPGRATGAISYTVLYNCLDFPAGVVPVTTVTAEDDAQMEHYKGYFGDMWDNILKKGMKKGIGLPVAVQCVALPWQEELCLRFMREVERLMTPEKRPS
Test: In vivo FAAH inhibition after oral dosing, remaining activity in liver homogenate (LVh, peripheral tissue)
Set-up: species or system NMRI mice
Settings: liver homogenate, 3 mg/kg, 8 h
Items are presented alongside their recorded In Vivo LVh 3 mg/kg 8 h, remaining FAAH activity.
Recorded metric: In Vivo LVh 3 mg/kg 8 h, remaining FAAH activity

{"Molecule": "O=C(N1CCN(c2ccccc2)CC1)n1cnc(Cc2ccccc2)n1", "Tested system": "FAAH (Mus musculus, UniProt O08914)", "Result": "111 % of control"}
{"Molecule": "COc1ccc(-c2cn(C(=O)N(C)C3CCCCC3)cn2)cc1OC", "Tested system": "FAAH (Mus musculus, UniProt O08914)", "Result": "4.2 % of control"}
{"Molecule": "CN(C(=O)n1cnc(-c2ccc(OCCN3CCNCC3)cc2)c1)c1ccccc1.Cl.Cl", "Tested system": "FAAH (Mus musculus, UniProt O08914)", "Result": "64.3 % of control"}
{"Molecule": "CN(CCCCCc1ccccc1)C(=O)n1nnc2ccccc21", "Tested system": "FAAH (Mus musculus, UniProt O08914)", "Result": "2 % of control"}
{"Molecule": "O=C(N1CCC(OCCCc2ccccc2)CC1)n1nnc2ccccc21", "Tested system": "FAAH (Mus musculus, UniProt O08914)", "Result": "30.1 % of control"}
{"Molecule": "CC1(C)COCN1C(=O)n1cnc(-c2cccc(Oc3ccc(C(N)=O)cc3)c2)n1", "Tested system": "FAAH (Mus musculus, UniProt O08914)", "Result": "70.1 % of control"}
{"Molecule": "Cc1ccc(OC2CCN(C(=O)n3nnc4ccccc43)CC2)cc1", "Tested system": "FAAH (Mus musculus, UniProt O08914)", "Result": "71.4 % of control"}
{"Molecule": "Cl.O=C(N1CCN(Cc2ccccc2)CC1)n1cnc(-c2cccs2)n1", "Tested system": "FAAH (Mus musculus, UniProt O08914)", "Result": "85.6 % of control"}
{"Molecule": "CN(C(=O)n1cnc(-c2cccc(-c3ccc(C(N)=O)cc3)c2)c1)C1CCCCC1", "Tested system": "FAAH (Mus musculus, UniProt O08914)", "Result": "15.8 % of control"}
{"Molecule": "CC1(C)COCN1C(=O)n1cnc(-c2ccc(F)cc2F)n1", "Tested system": "FAAH (Mus musculus, UniProt O08914)", "Result": "78.1 % of control"}
{"Molecule": "CC1(C)COCN1C(=O)n1cnc(-c2ccc(Oc3ccc(C(N)=O)cc3)cc2)n1", "Tested system": "FAAH (Mus musculus, UniProt O08914)", "Result": "108.6 % of control"}
{"Molecule": "COc1cccc(-c2cn(C(=O)N3CCCc4ccccc43)cn2)c1", "Tested system": "FAAH (Mus musculus, UniProt O08914)", "Result": "101.1 % of control"}
{"Molecule": "COc1ccc(-c2cn(C(=O)N3COCC3(C)C)cn2)cc1OC", "Tested system": "FAAH (Mus musculus, UniProt O08914)", "Result": "13.3 % of control"}
{"Molecule": "O=C(NC12CC3CC(CC(C3)C1)C2)n1nnc2ccccc21", "Tested system": "FAAH (Mus musculus, UniProt O08914)", "Result": "2.2 % of control"}
{"Molecule": "COc1cccc(-c2cccc(-c3cn(C(=O)N4COCC4(C)C)cn3)c2)c1", "Tested system": "FAAH (Mus musculus, UniProt O08914)", "Result": "37.7 % of control"}
{"Molecule": "CC1(C)COCN1C(=O)n1cnc(-c2cccc(-c3cccc(C(N)=O)c3)c2)c1", "Tested system": "FAAH (Mus musculus, UniProt O08914)", "Result": "6.5 % of control"}
{"Molecule": "O=C(N1CCCc2ccccc21)n1cnc(-c2cccc(O)c2)c1", "Tested system": "FAAH (Mus musculus, UniProt O08914)", "Result": "132.3 % of control"}
{"Molecule": "CCC1CN(C(=O)n2cnc(-c3ccc(Cl)cc3)c2)C(C)(C)O1 (stereo not shown)", "Tested system": "FAAH (Mus musculus, UniProt O08914)", "Result": "83.7 % of control"}
{"Molecule": "O=C(N1CCN(c2ccccc2)CC1)n1cnc(-c2cccc(-c3ccccc3)c2)c1", "Tested system": "FAAH (Mus musculus, UniProt O08914)", "Result": "78.3 % of control"}
{"Molecule": "O=C(NC1CCCCC1)n1nnc2ccccc21", "Tested system": "FAAH (Mus musculus, UniProt O08914)", "Result": "4 % of control"}
{"Molecule": "CN(C(=O)n1cnc(-c2cccc(-c3ccccc3)c2)c1)C1CCCCC1", "Tested system": "FAAH (Mus musculus, UniProt O08914)", "Result": "4.6 % of control"}
{"Molecule": "O=C(N1CCC(c2ccncc2)CC1)n1nnc2ccccc21", "Tested system": "FAAH (Mus musculus, UniProt O08914)", "Result": "109.9 % of control"}
{"Molecule": "O=C(N1CCC(CCc2ccccc2)CC1)n1nnc2ccccc21", "Tested system": "FAAH (Mus musculus, UniProt O08914)", "Result": "40.5 % of control"}
{"Molecule": "CN(C(=O)n1cnc2ccccc21)C1CCCCC1", "Tested system": "FAAH (Mus musculus, UniProt O08914)", "Result": "59.2 % of control"}
{"Molecule": "CN(C(=O)n1cnc(-c2cccc(O)c2)c1)c1ccccc1", "Tested system": "FAAH (Mus musculus, UniProt O08914)", "Result": "25.6 % of control"}
{"Molecule": "O=C(N1CCN(c2ccccc2)CC1)n1cnc(-c2cccs2)n1", "Tested system": "FAAH (Mus musculus, UniProt O08914)", "Result": "108.2 % of control"}
{"Molecule": "CN(C(=O)n1cnc(-c2cccc(-c3cccc(C(N)=O)c3)c2)c1)C1CCCCC1", "Tested system": "FAAH (Mus musculus, UniProt O08914)", "Result": "2.8 % of control"}
{"Molecule": "O=C(N1CCN(C2CCCCC2)CC1)n1nnc2ccccc21", "Tested system": "FAAH (Mus musculus, UniProt O08914)", "Result": "107.3 % of control"}
{"Molecule": "CN(CCOCc1ccccc1)C(=O)n1nnc2ccccc21", "Tested system": "FAAH (Mus musculus, UniProt O08914)", "Result": "24.4 % of control"}
{"Molecule": "COc1ccc(OCCC2CCN(C(=O)n3nnc4ccccc43)CC2)cc1", "Tested system": "FAAH (Mus musculus, UniProt O08914)", "Result": "17.6 % of control"}
{"Molecule": "CC1(C)COCN1C(=O)n1cnc(-c2ccc(O)cc2)c1", "Tested system": "FAAH (Mus musculus, UniProt O08914)", "Result": "7.8 % of control"}
{"Molecule": "CN(C(=O)n1cnc(-c2cccc(-c3cccc(O)c3)c2)c1)C1CCCCC1", "Tested system": "FAAH (Mus musculus, UniProt O08914)", "Result": "85.5 % of control"}
{"Molecule": "CN(C(=O)n1cnc(-c2cccc(-c3cccc(Cl)c3)c2)c1)C1CCCCC1", "Tested system": "FAAH (Mus musculus, UniProt O08914)", "Result": "12.2 % of control"}
{"Molecule": "CC1(C)COCN1C(=O)n1cnc(-c2cccnc2)c1.Cl.Cl", "Tested system": "FAAH (Mus musculus, UniProt O08914)", "Result": "5.1 % of control"}
{"Molecule": "O=C(N1CCC(Cc2ccccc2)CC1)n1cnc(-c2ccc(F)cc2F)n1", "Tested system": "FAAH (Mus musculus, UniProt O08914)", "Result": "45.2 % of control"}
{"Molecule": "NC(=O)c1ccc(Oc2ccc(-c3ncn(C(=O)N4CCOCC4)n3)cc2)cc1", "Tested system": "FAAH (Mus musculus, UniProt O08914)", "Result": "103 % of control"}
{"Molecule": "CC1(C)COCN1C(=O)n1nnc2ccc(Br)cc21", "Tested system": "FAAH (Mus musculus, UniProt O08914)", "Result": "3.1 % of control"}
